# Test system: OVCAR-5 ovarian
# Run Description: NCI-60 one-dose screen, 48 h (100 = growth as untreated, 0 = no growth, -100 = all killed)
# Measurement Setup: 10 µM unless noted
This is part of a sample that, as a whole, favours compounds with a hit. Of some 83,000 tested, about 20% had one in any assay. Activity calls are given as the source filed them. Rule for the calls: active = growth percent below 10; inactive = the rest.
Field: growth. Provide a value for each of the compounds that follow.

What value of growth has been recorded for this entry: CC[C@]12CN3CCc4c([nH]c5ccccc45)[C@@](C(=O)OC)(c4cc5c(cc4OC)N(C)[C@H]4[C@@](O)(C(=O)OC)[C@H](OC(C)=O)[C@]6(CC)C=CCN7CC[C@]54[C@@H]76)CC(C3)[C@H]1O2 (some centres undefined)
49% (inactive)

What value of growth has been recorded for this entry: CCCN1C(=O)/C(=c2\sc3n(c2=O)NC2C(N=3)N(CC)C(=O)N2CC)c2ccccc21 (centres undefined)
39.6% (inactive)

What value of growth has been recorded for this entry: "CC/C(=C(/c1ccc(O)cc1)c1ccc(OCCN2CCCCCC2)cc1)c1ccc(Cl)cc1"
75% (inactive)

What value of growth has been recorded for this entry: "C=C[C@]1(C)C=C2CC[C@@H]3C(C)(C)C(=O)CC[C@@]3(C)[C@@H]2CC1"
111% (inactive)

What value of growth has been recorded for this entry: "COc1ccc(Nc2ncnc3ccc(-c4cncc(NS(C)(=O)=O)c4)cc23)cc1Cl"
45.1% (inactive)

What value of growth has been recorded for this entry: "Nc1nc2ccccc2c2c(=O)c3ccc(Cl)cc3sc12"
101% (inactive)

What value of growth has been recorded for this entry: "NCCOCCOc1ccccc1"
104% (inactive)

What value of growth has been recorded for this entry: "O=C1c2cccc3cccc(c23)C(=O)N1N1C(=O)c2cccc3c(N4CCNCC4)ccc(c23)C1=O"
121% (inactive)

What value of growth has been recorded for this entry: "O=c1ccc2nc(-c3ccccn3)nn(-c3ccccc3)c-2c1"
109% (inactive)

###

# Test system: NCI-H522 lung
# Run Description: NCI-60 one-dose screen, 48 h (100 = growth as untreated, 0 = no growth, -100 = all killed)
# Measurement Setup: 10 µM unless noted
This is part of a sample that, as a whole, favours compounds with a hit. Of some 83,000 tested, about 20% had one in any assay.
Binning scheme for growth: lower segment = under 10%, middle segment = from 10% up to 80%, upper segment = 80% and over

For "Cc1ccc(/C=C(\C#N)c2cc3ccccc3[nH]2)cc1" , which growth bin applies?
middle segment

For "C=C(C)[C@@H]1CC[C@]2(C(=O)N3CCN(C)CC3)CC[C@]3(C)[C@H](CC[C@@H]4[C@@]5(C)CC(CCCNC(C)=O)(CCCNC(C)=O)[C@H](OC(C)=O)C(C)(C)[C@@H]5CC[C@]43C)[C@@H]12" , which growth bin applies?
upper segment

For "Cc1ccc(NC(=O)c2ccc(CN3CCN(C)CC3)cc2)cc1Nc1nccc(-c2cccnc2)n1" , which growth bin applies?
middle segment

For "COCCOc1cc2ncnc(N3CCN(S(=O)(=O)c4ccccc4Cl)CC3)c2cc1OCCOC" , which growth bin applies?
middle segment

For "CC(=O)c1c(C)nc2ccccc2c1/C=C/c1cccc(C)c1" , which growth bin applies?
middle segment

For "Clc1nccc2c(-c3csc(-c4c[nH]c5ccc(Br)cc45)n3)c[nH]c12" , which growth bin applies?
lower segment

For "N=c1c2c(-c3ccccc3)c(-c3ccccc3)oc2ncn1NC(=O)c1cccnc1" , which growth bin applies?
upper segment

For "O=C([C@H]1C[C@H]1c1ccc(S(F)(F)(F)(F)F)cc1)N1CCN(c2cc(Cl)ccc2C(F)(F)F)CC1" , which growth bin applies?
middle segment

For "N#Cc1c(-c2cccc(F)c2)cc(-c2cccnc2)[nH]c1=O" , which growth bin applies?
upper segment

For "COc1nc2ccc(C)cc2cc1/C=[N+](\[O-])c1ccccc1" , which growth bin applies?
upper segment

For CCCCC1COc2cccc3c2N1C=C/C3=C\C(=O)N(C)c1cccc(Cl)c1 (stereo not given) , which growth bin applies?
upper segment

For "COc1ccc(C/C(C)=C(/c2ccc(OCCN3CCCCCC3)cc2)c2ccc(OC(=O)c3ccccc3)cc2)cc1" , which growth bin applies?
middle segment

For "COc1cc(F)c(/C=C/c2cc(/C=C/c3cc(OC)c(OC)cc3F)n(-c3cc(F)cc(F)c3)n2)cc1OC" , which growth bin applies?
middle segment

For CCCN1C(=O)/C(=c2\sc3n(c2=O)NC2C(N=3)N(CC)C(=O)N2CC)c2ccccc21 (stereo not given) , which growth bin applies?
middle segment

For "Cc1ccc(C(=O)c2ccc(CC(=O)N=Nc3c(O)[nH]c4ccc(OC(F)(F)F)cc34)n2C)cc1" , which growth bin applies?
upper segment

For "Cc1[nH]c(C(=O)Nc2nc3ccc(NC(=O)CCN)cc3s2)c(Cl)c1Cl" , which growth bin applies?
upper segment

For "Clc1ccc(Nc2nc(Nc3ccc(Cl)cc3)nc(Nc3ccc(-c4cc(-c5cccc(Cl)c5)on4)cc3)n2)cc1" , which growth bin applies?
upper segment

For N=C1/C(=C2\NC3C=CC=CC3S2)C(c2ccc(Cl)cc2)C2C(=O)N(c3ccccc3)C(=S)N12 (stereo not given) , which growth bin applies?
upper segment

For "NC(=O)c1c(NC(=O)/C=C/c2cccs2)sc2c1CCC(=O)C2" , which growth bin applies?
lower segment

For "COc1ccc(-c2cc(-c3cccc(Cl)c3)c(C#N)c(=O)[nH]2)c(OC)c1" , which growth bin applies?
upper segment

For "Fc1ccccc1-c1cnn2cc(-c3ccccc3)cnc12" , which growth bin applies?
upper segment

For "Cn1c(=O)c2c(nc(Nc3cc(=O)[nH]c(=O)[nH]3)n2Cc2ccccc2)n(C)c1=O" , which growth bin applies?
lower segment

For C=C(CNCCc1ccc(O)cc1)[C@@H]1CC[C@]2(CO)CC[C@]3(C)[C@H](CC[C@@H]4[C@@]5(C)CCC(NCCc6ccc(O)cc6)C(C)(C)[C@@H]5CC[C@]43C)[C@@H]12 (stereo not given in full) , which growth bin applies?
lower segment

For "O=C(c1ccc(Nc2nccc(NCCCNc3ccnc4cc(Cl)ccc34)n2)cc1)N1CCCCC1" , which growth bin applies?
middle segment

For "Brc1ccc(/C=C(/C2=NCCN2)n2ccc3ccccc32)cc1" , which growth bin applies?
middle segment

For COc1ccc(C(c2cc(OC)c(OC)c(OC)c2)n2ccnc2)cc1O (stereo not given) , which growth bin applies?
middle segment

For C=C1CC[C@@H]2[C@](C)(COC(C)=O)[C@H](OC(C)=O)CC[C@@]2(C)[C@@H]1CC(Nc1ccc(S(=O)(=O)Nc2nccs2)cc1)C1=CCOC1=O (stereo not given in full) , which growth bin applies?
lower segment

For "COc1cc(-c2nn(-c3cccc(NC(=O)CCN4CCN(C)CC4)c3)cc2-c2ccncc2)ccc1Cl" , which growth bin applies?
lower segment

For "CCN(C(=O)N1CCN(c2cc3c(cc2F)c(=O)c(C(=O)O)cn3C2CC2)CC1)c1nc(-c2ccccc2)cs1" , which growth bin applies?
lower segment

For "COc1cc(/C=C(/c2ccccc2)[N+](=O)[O-])c(OC)c2c1OCO2" , which growth bin applies?
lower segment

For "CC/C=C\C/C=C\C[C@H](O)C/C=C1/C(=O)C=C[C@@H]1C/C=C\CCCC(=O)OC" , which growth bin applies?
lower segment

For "O=c1ccc2nc(-c3ccccn3)nn(-c3ccccc3)c-2c1" , which growth bin applies?
lower segment

###

Field: growth. Provide a value for each of the compounds that follow.
# Test system: K-562 leukemia
# Run Description: NCI-60 one-dose screen, 48 h (100 = growth as untreated, 0 = no growth, -100 = all killed)
# Measurement Setup: 10 µM
The panel holds about 83,000 compounds, 20% with a hit somewhere; the sample as a whole holds those more often.
Number in %, nothing else.

What value of growth has been recorded for this entry: "COc1ccc(C(=O)/C=C/c2ccc(OCc3ccc(Cl)cc3)cc2)cc1OC"
67.9

What value of growth has been recorded for this entry: "O=C(/C=C/c1cccc(Oc2ccc(Cl)cc2)c1)c1ccccc1"
31.6

What value of growth has been recorded for this entry: "CCN(Cc1ccccc1)c1ccc(/C=C2\COc3ccccc3C2=O)cc1"
78.4

What value of growth has been recorded for this entry: "CC(=O)/C=C/c1ccc(OCc2ccc(Cl)cc2)cc1"
79.1

What value of growth has been recorded for this entry: "CC(=O)/C=C/c1ccc(N(C)Cc2ccc(C(C)(C)C)cc2)cc1"
59.5

###

# Test system: CAKI-1 renal
# Run Description: NCI-60 one-dose screen, 48 h
# Measurement Setup: 10 µM unless noted
About 83,000 compounds went through this panel and 20% of them were active in at least one assay; those are over-represented in the sample as a whole. Activity calls are given as the source filed them. How the source made its calls: active means growth percent below 10; inactive means the rest.
Outcome (select one): label 1 = active, label 0 = inactive

Field: outcome | Entry: "CCN(CC)CC#CCOC(=O)[C@]1(C)CCC[C@]2(C)c3ccc(C(C)C)cc3CC[C@@H]12"
label 0

Field: outcome | Entry: "COc1ccc(/C=N\Nc2nc(SCC(C)C)nc(-c3ccc(OC)cc3)c2C#N)cc1"
label 1

Field: outcome | Entry: "COCCn1cc(-c2nc(-c3cn(CCOC)c4ncccc34)cs2)c2ccccc21"
label 0

Field: outcome | Entry: "CN(C)CCCn1c2c(c3ccc(N4CCNCC4)cc3c1=O)C(=O)c1ccccc1-2"
label 1

Field: outcome | Entry: "Cc1ccc(C(=O)Nc2ccc(CN3CCN(C)CC3)c(C(F)(F)F)c2)cc1C#Cc1cnc(N)cc1C#N"
label 1

Field: outcome | Entry: C=C(CNCCO)[C@@H]1CC[C@]2(CO)CC[C@]3(C)[C@H](CC[C@@H]4[C@@]5(C)CCC(NCCc6ccc(O)cc6)C(C)(C)[C@@H]5CC[C@]43C)[C@@H]12 (stereo partly drawn)
label 1

Field: outcome | Entry: "Cn1c(=O)c2c(nc(Nc3cc(=O)[nH]c(=O)[nH]3)n2Cc2ccccc2)n(C)c1=O"
label 0

Field: outcome | Entry: "Cc1ccc(S(=O)(=O)Nc2cc(Sc3ccccc3)c(O)c3ccccc23)cc1"
label 0
